test: viability gain of MRP-1-high H69AR cells under doxorubicin, pilot screen, MRP-1 activator project, CellTiter-Glo, duplicate (AID 807); details: H69AR viability with doxorubicin, CellTiter-Glo luminescence; at 10 µM; hits give high values;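 note: compound pretreatment 18-22 h then 72 h combined with doxorubicin; 0% = doxorubicin alone and 100% = vehicle without doxorubicin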
MEASUREMENT NAME: viability increase (%)
Answers are plain numbers, in %.

Here are 8 compounds together with their reported answers.
COMPOUND: CCN(CC)CCN=C1CCCc2ccccc2N1
viability increase [%]: -2.11

COMPOUND: Cc1cc(C(=O)NC2CCCC2)on1
viability increase [%]: 0.32

COMPOUND: O=C(c1ccccc1F)N1CCN(S(=O)(=O)c2ccc3c(c2)OCCO3)CC1
viability increase [%]: -5.24

COMPOUND: Cn1c(=O)c2c(nc(CN3CCOCC3)n2CCCO)n(C)c1=O
viability increase [%]: -0.74

COMPOUND: Cn1cc(SCC(=O)NCC2CCCO2)c2ccccc21 (stereo not drawn)
viability increase [%]: -2.67

COMPOUND: CCOC(=O)C1CCCN(c2c(NCCCN3CCCC(C)C3)c(=O)c2=O)C1 (stereo not drawn)
viability increase [%]: -0.04

COMPOUND: Cc1nnc(SCCn2c(N3CCN(c4ccccc4)CC3)nc3c2c(=O)n(C)c(=O)n3C)s1
viability increase [%]: -1.99

COMPOUND: O=C(Nc1nc(-c2cc3ccccc3oc2=O)cs1)c1ccco1
viability increase [%]: -1.98

Would you mind giving viability increase for every compound in the list below?
1. O=C(O)CCCC(=O)N1CCN(c2nc(-c3ccccc3)c3ccccc3n2)CC1
2. O=C(c1ccc(N2CCCCS2(=O)=O)cc1)N1CCN(c2ccc(N3CCOCC3)nn2)CC1
3. CN(c1ccc(C(=O)O)cc1)S(=O)(=O)c1ccccc1
4. Cc1nnc(NC(=O)CSc2nc3c(c(=O)n2CCc2ccccc2)SC(C)C3)s1 (stereo not drawn)
5. Cn1c(Cn2c(=O)sc3ccccc32)nnc1SCc1cccc(F)c1
6. O=c1c2ccccc2ncn1-c1ccc2c(c1)OCCO2
7. COc1ccc2c(=O)c(N3C(=O)c4ccccc4C3=O)c(C)oc2c1
8. CCOC(=O)/C=C/S(=O)(=O)c1ccc(NC(C)=O)cc1

Ans:
1. -1.22
2. -0.03
3. -1.24
4. 0.33
5. -0.5
6. -0.34
7. -1.12
8. -7.51

====

experiment: OD615 S. cerevisiae growth inhibition, permissive medium, pilot counter-assay, permissive growth control for S. cerevisiae lifespan shortening project (AID 705); conditions: OD615, 24 h, at 10 µM, hits give high values
MEASUREMENT NAME: growth inhibition (%)
Give bare numbers, in %.

Here are 5 compounds together with their reported answers.
STRUCTURE: COc1ccccc1NC(=O)Cc1noc(CSc2nnc(C)s2)n1
MEASUREMENT NAME: growth inhibition
NUMERIC READOUT: -3.75
--
STRUCTURE: N#CCCN1CCN(S(=O)(=O)c2ccc(S(=O)(=O)N3CCCCCC3)cc2)CC1
MEASUREMENT NAME: growth inhibition
NUMERIC READOUT: 1.57
--
STRUCTURE: Cc1cc(C)c(C#N)c(SCC(=O)c2cccs2)n1
MEASUREMENT NAME: growth inhibition
NUMERIC READOUT: -9.34
--
STRUCTURE: COc1ccc(CCNC(=O)CN2CCOc3ccccc32)cc1OC
MEASUREMENT NAME: growth inhibition
NUMERIC READOUT: -23.7
--
STRUCTURE: Cn1c(C(=O)NCCCN2CCN(c3cccc(Cl)c3)CC2)cc2c(=O)n(C)c3ccccc3c21
MEASUREMENT NAME: growth inhibition
NUMERIC READOUT: -2.52

Q: Please give measured growth inhibition of the following entry: CCOc1ccccc1Nc1nnc(C)c(=O)[nH]1
Ans: -5.5

Hey, just so you know, these numbers are from PubChem BioAssay.
